# System: 379773-124-R-J2-PDC complex spheroids, viability % test/control;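 also: compound exposure lasted seven days before the viability readout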
# TEST_METHOD_NOTES: Anticancer human tumor 379773-124-R-J2-PDC patient-derived endometrial carcinoma cell line growth inhibition [CLK]
# ASSAY_CONDITIONS: second compound 10 µM; first compound 10 µM; active compounds read low
Label condition met when viability, T/C < 0.7%; otherwise condition not met.

Does COC1C=CCC(C)C(C)S(=O)(=O)NC(=O)c2ccc3c(c2)N(CC2CCC21)CC1(CCCc2cc(Cl)ccc21)CO3 (stereo not given) + CNC(=O)c1ccc(Nc2nc(OC3CCCC3)c3c(-c4ccc5nc(C)oc5c4)c[nH]c3n2)c(OC)c1 have viability, T/C strictly under 0.7%?
condition not met

Threshold test, viability, T/C < 0.7%: Nc1ccccc1NC(=O)c1ccc(CNC(=O)OCc2cccnc2)cc1 + CNC(=O)c1ccc(Nc2nc(OC3CCCC3)c3c(-c4ccc5nc(C)oc5c4)c[nH]c3n2)c(OC)c1
condition not met

Given O=C(c1cc(Cc2n[nH]c(=O)c3ccccc23)ccc1F)N1CCN(C(=O)C2CC2)CC1 + CN1CCN(c2cc(C(=O)Nc3cc4cc(-c5cnn(C)c5)ccc4cn3)ccn2)CC1 , is recorded viability, T/C strictly lower than 0.7%?
condition met

Field: below-cutoff. Rule: recorded viability, T/C strictly less than 0.7%. Subject: C#Cc1c(F)ccc2cc(O)cc(-c3ncc4c(N5CC6CCC(C5)N6)nc(OCC56CCCN5CC(F)C6)nc4c3F)c12 (stereo not given) + CN1CCN(c2cc(C(=O)Nc3cc4cc(-c5cnn(C)c5)ccc4cn3)ccn2)CC1
condition met

Does the reported viability, T/C of the following compound sit strictly below 0.7%? CC(CO)NC(=O)c1cc(-c2ccc(Cl)cc2)nn(-c2cnn(C)c2)c1=O (stereo not given) + CN1CCN(c2cc(C(=O)Nc3cc4cc(-c5cnn(C)c5)ccc4cn3)ccn2)CC1
condition met
